- assayed_target: TDP-43 (Homo sapiens, UniProt Q13148 1-414)
- Sequence (Q13148 whole entry): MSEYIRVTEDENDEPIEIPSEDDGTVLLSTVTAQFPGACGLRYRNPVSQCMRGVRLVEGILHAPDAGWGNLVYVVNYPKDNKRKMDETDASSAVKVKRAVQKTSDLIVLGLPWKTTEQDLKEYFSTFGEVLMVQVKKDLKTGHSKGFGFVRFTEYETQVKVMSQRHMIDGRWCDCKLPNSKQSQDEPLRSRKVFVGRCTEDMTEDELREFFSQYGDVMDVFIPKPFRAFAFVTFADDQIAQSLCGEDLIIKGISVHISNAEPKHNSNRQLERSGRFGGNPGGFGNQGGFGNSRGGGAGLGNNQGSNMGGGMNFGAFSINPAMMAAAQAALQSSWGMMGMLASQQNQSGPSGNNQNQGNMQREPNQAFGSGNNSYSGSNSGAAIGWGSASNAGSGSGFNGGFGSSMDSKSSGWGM
- protocol_text: RNA Bind-n-Seq with designed 260-mer pool; 25 mM Tris-HCl, 150 mM KCl, 3 mM MgCl2, BSA (printed 500 mg/mL), 20 units/mL SUPERase IN; pH not stated; 500 nM RNA pool, 1 h, 4 C; TDP-43 5, 50, 500 nM; high values mean tight binding
- condition_description: protein: recombinant; tags: SBP (GST cleaved off with PreScission; pGEX-GST-SBP)
Whole data set: some 9,900 sequences, median “r (bound/input frequency ratio)” near 0.7, cut for the highest 2% near 6.5. Many of the other results were omitted from the sample, so the highest values are more common in it than they were.

binder: ENSMUSG00000061578.980|Ksr2 (ssRNA) RNA: GGGAGUUCUACAGUCCGACGAUCGCUUCGAUAUCCGCAUGCUAAUCCAUGACUCAGAAUUUUCCAGAGACCCAAUCCCUCGGGGUCCACUUAGUGAUGGGACCAUACAAGAGUUUAUUUCCAAUUAGAGAAUUGGGUCAACUGGGAAAGGCUUCUUUCCUGGUAACCCUGCUACUGAUACUAUGUUGAAACAGGAAUCGACUCUAACUGCUUUUUGGCCUCUUCCCUGCACGGGAGUCUCAAAAUCAAGUUUUUACCCAGUGGCCUCUGGGAUCCACUCUCUCUACUCCUGAACUCUUAAAACCUCUUGCGGUCGCACUAGUGUGGAAUUCUCGGGUGUCAAGG
binding signal: 0.19 R (bound/input frequency ratio)
//
binder: ENSMUSG00000061578.330|Ksr2|114:118 (ssRNA) RNA: GGGAGUUCUACAGUCCGACGAUCGCUUCGAUAUCCGCAUGCUACUCCAAGGAAGCCAGGGGAGGGGGACUCCUCAGGAAGGAGUGACCAGUCACCUGCCUCCCAGGGUUCUGCCUUGCCCUUAAGCUAGGGUCCUUCAAGCAUCCACAGACUUAGACACACGUGGUAACAUGCUUGUAAUCCUGGCACUCUGGAGGCUGAGGCAGGAGGAUAACAAGUCUAGACUAUAUAUGAUUUCUGAGGGUCUGUUAGUGAAUAAGUACCUGGAUGACAUGGGACAAGUCCCAGCCUUCCCUGCUCCUGCCUCUUGCGGUCGCACUAGUGUGGAAUUCUCGGGUGUCAAGG
binding signal: 1.65 R (bound/input frequency ratio)
//
binder: ENSMUSG00000058297.476|Spock2 (ssRNA) RNA: GGGAGUUCUACAGUCCGACGAUCGCUUCGAUAUCCGCAUGCUAGCUGUGUUGGAAAGAGUUCAACCAAAUUACGGCAGCACCACAUCUUGCCGAGCCCUGGAGCUGCCCUACUAAGAGCCUCCUUAGCCCUGGGUGCUGGGAAGGAUGGUGUACGUUGGGGAAGUUUGAGGUUGGAGAGAGUAAAUGUGCCUUGAGAGACCACUCAGAGGUCCCAGGAGGAACGGGGGCGGGGCUUAGCCUGGGAGUUCUGGCAGGAGGCAAAGUUGGUGAGAGUCCUGGGACAUCUUACCCCCAGUGUUCCACUCUUGCGGUCGCACUAGUGUGGAAUUCUCGGGUGUCAAGG
binding signal: 3.44 R (bound/input frequency ratio)
//
binder: ENSMUSG00000022095.191|Fam160b2 (ssRNA) RNA: GGGAGUUCUACAGUCCGACGAUCGCUUCGAUAUCCGCAUGCUACCUGGGCAAGGAGGAGCAGGCCAGAGCCCCUUUUGCUUCCUUUUCCUGCCCAUGCCACCUCUCGAAGCCGGGCACAGGUUGCCAGGAGGUGACAUGAAAGAGGAGGAAACUCCAUGACCUCUACAUCCCCCGCAGUCCUCCCAGCGGGGGAGGACUUCUCUGCUGCUCCGAAGAACAUCAUGCACUCCUGUGUGUGUGUGUGAGUGUGUGUGUGUGUGUGUGUGUGUGUGUGUGUGUAUGUGUGUGUAUAUGUGUGUGUGCUCUUGCGGUCGCACUAGUGUGGAAUUCUCGGGUGUCAAGG
binding signal: 5.73 R (bound/input frequency ratio)
